Consider the following molecules; for each one, report its combination Emax.
System: SW684 (Other Solid Carcinomas)
Protocol Text: combination Emax (second highest fraction inhibited in the dose matrix, 72 h); higher = more inhibition; extreme values may be limits of the assay

Query: Give me measured combination Emax, please, for this molecule: N#Cc1cnc(Nc2cc(NC[C@H]3CNCCO3)c(C(F)(F)F)cn2)cn1 [SRA737] + O=c1[nH]cc(F)c(=O)[nH]1 [5-Fluorouracil] (first compound max 10 µM, 7x7, partner max 20 µM)
Reply: 0.273

Query: Provide one value: measured combination Emax of Cc1c2c(nn1C)CSCc1cc(n(C)n1)CSc1cc(c3ccccc3c1)OCCCc1c(C(=O)O)n(C)c3c-2c(Cl)ccc13 [AZD5991] + CS(=O)(=O)CCNCc1ccc(-c2ccc3ncnc(Nc4ccc(OCc5cccc(F)c5)c(Cl)c4)c3c2)o1 [Lapatinib] (first compound max 1 µM, 7x7, partner max 10 µM)
Reply: 0.177

Query: Provide one value: measured combination Emax of CN(CCO)CC[C@H](CSc1ccccc1)Nc1ccc(S(=O)(=O)NC(=O)c2ccc(N3CCC([C@@H](O)c4ccccc4-c4ccc(Cl)cc4)CC3)cc2)cc1S(=O)(=O)C(F)(F)F [AZD4320] + C=CCn1c(=O)c2cnc(Nc3ccc(N4CCN(C)CC4)cc3)nc2n1-c1cccc(C(C)(C)O)n1 [AZD1775] (first compound max 1 µM, partner max 1 µM)
Reply: 0.381

Query: Read the entry CC1(C)CCC(CN2CCN(c3ccc(C(=O)NS(=O)(=O)c4ccc(NCC5CCOCC5)c([N+](=O)[O-])c4)c(Oc4cnc5[nH]ccc5c4)c3)CC2)=C(c2ccc(Cl)cc2)C1 [Venetoclax] + Cn1cnc2c(F)c(Nc3ccc(Br)cc3Cl)c(C(=O)NOCCO)cc21 [Selumetinib] (first compound max 1 µM, 7x7, partner max 3 µM) and write its reported combination Emax.
Reply: 0.191

Query: Supply combination Emax value. Item: C=CCn1c(=O)c2cnc(Nc3ccc(N4CCN(C)CC4)cc3)nc2n1-c1cccc(C(C)(C)O)n1 [AZD1775] + Nc1ccn([C@@H]2O[C@H](CO)[C@@H](O)C2(F)F)c(=O)n1 [Gemcitabine] (first compound max 1 µM, partner max 0.3 µM)
Reply: 0.382

Attribution: the supplement of paper PMC11061612
